Recorded values, source paper PMC5892938.

Experimental System: GST-SBP-SLBP (stem-loop binding protein) (Homo sapiens, UniProt Q14493 1-270)
Protocol Summary: targeted RNA Bind-n-Seq; RBNS binding buffer: 25 mM Tris pH 7.5, 150 mM KCl, 3 mM MgCl2, 0.1% Tween, 0.5 mg/mL BSA, 1 mM DTT; 27 nM protein, 750 pM RNA pool; temperature not stated; high values mean tight binding
Condition Details: protein: recombinant; tags: N-terminal GST and SBP (pGEX6P1-SBP); structured_RNA
Over roughly 11,000 sequences, “log2 fold change” has its median near 0.00022; the highest 2% begin near 0.34. The list shows a part of the results.
Measured binding signal accompanies every entry in the list below.

Residues: GGUCACGUCUCAAUCAACUCUCAAGAGGGGGGGAAAACCCCUUUGCCCUCAACAUCAACAGCUCGCAGUCAAG
binding signal [log2 fold change]: 0.531
//
Residues: GGUCACGUCUCAAUCAACUCAUCAGAGGGGGGGAAAACCCCUUUACCCUCAACUUCAACAGCUCGCAGUCAAG
binding signal [log2 fold change]: 0.39
//
Residues: GGUCACGUCUCAAUCAACUCAUCAGAGGGGGGGAAAACCCCUUUACCCUCAUCCUCAACAGCUCGCAGUCAAG
binding signal [log2 fold change]: 0.388
//
Residues: GGUCACGUCUCAAUCAACUCAAUCUCCAGGGAAAUCCCUGGCUAAUUCAACAGCUCGCAGUCAAG
binding signal [log2 fold change]: 0.315

----------
Experimental System: GST-SBP-SLBP (stem-loop binding protein) (Homo sapiens, UniProt Q14493 1-270)
Protocol Summary: targeted RNA Bind-n-Seq; RBNS binding buffer: 25 mM Tris pH 7.5, 150 mM KCl, 3 mM MgCl2, 0.1% Tween, 0.5 mg/mL BSA, 1 mM DTT; 27 nM protein, 750 pM RNA pool; temperature not stated; high values mean tight binding
Condition Details: protein: recombinant; tags: N-terminal GST and SBP (pGEX6P1-SBP); structured_RNA
Over roughly 11,000 sequences, “log2 fold change” has its median near 0.00022; the highest 2% begin near 0.34. Some of the results follow.
Measured binding signal accompanies every entry in the list below.

Residues: GGUCACGUCUCAAUCAACUCACAAGAGGGGGGGAAAACCCCUUUGCCCUCCGUAUCAACAGCUCGCAGUCAAG
binding signal: 0.416 log2 fold change
//
Residues: GGUCACGUCUCAAUCAACUCUCACGAGGGGGGGAAAACCCCUUUACCCUCAAAUUCAACAGCUCGCAGUCAAG
binding signal: 0.315 log2 fold change
//
Residues: GGUCACGUCUCAAUCAACUCAAUCCCAGGAGUUUGCUCCUGCAUAUUCAACAGCUCGCAGUCAAG
binding signal: 0.355 log2 fold change
//
Residues: GGUCACGUCUCAAUCAACUCAUCCGCAGGAGUUUCCUCCUGGUAUUUCAACAGCUCGCAGUCAAG
binding signal: 0.483 log2 fold change
//
Residues: GGUCACGUCUCAAUCAACUCAAUCUCAGGAGUUUUCUCCUGCUAUUUCAACAGCUCGCAGUCAAG
binding signal: 0.339 log2 fold change
//
Residues: GGUCACGUCUCAAUCAACUCUUACGAGGGGGGGAAAACCCCUUUGCCCUCAACAUCAACAGCUCGCAGUCAAG
binding signal: 0.326 log2 fold change
//
Residues: GGUCACGUCUCAAUCAACUCUUUCUCAGGAGUUUCCUCCUGCAUUUUCAACAGCUCGCAGUCAAG
binding signal: 0.312 log2 fold change
//
Residues: GGUCACGUCUCAAUCAACUCACACGAGGGGGGGAAAACCCCUUUACCCUCUACCUCAACAGCUCGCAGUCAAG
binding signal: 0.472 log2 fold change
//
Residues: GGUCACGUCUCAAUCAACUCUUACGAGGGGGGGAAAACCCCUUUACCCUCAAAUUCAACAGCUCGCAGUCAAG
binding signal: 0.37 log2 fold change
//
Residues: GGUCACGUCUCAAUCAACUCAUCCUCAGGAGUUUGCUCCUGCAUAUUCAACAGCUCGCAGUCAAG
binding signal: 0.313 log2 fold change
//
Residues: GGUCACGUCUCAAUCAACUCAAAAGAGGGGGGGAAAACCCCUUUGCCCUCGAUAUCAACAGCUCGCAGUCAAG
binding signal: 0.336 log2 fold change
//
Residues: GGUCACGUCUCAAUCAACUCUCUCGAGGGGGGGAAAACCCCUUUACCCUCACAAUCAACAGCUCGCAGUCAAG
binding signal: 0.571 log2 fold change
//
Residues: GGUCACGUCUCAAUCAACUCCCAAAGGUUUUUUUAAGAGCCACCCAUCAACAGCUCGCAGUCAAG
binding signal: 0.54 log2 fold change
//
Residues: GGUCACGUCUCAAUCAACUCCUCAGAGGGGGGGAAAACCCCUUUACCCUCCCAUUCAACAGCUCGCAGUCAAG
binding signal: 0.356 log2 fold change
//
Residues: GGUCACGUCUCAAUCAACUCCCAAAGGUUUUUCUCAGAACCACCCAUCAACAGCUCGCAGUCAAG
binding signal: 0.402 log2 fold change
//
Residues: GGUCACGUCUCAAUCAACUCAGUCUCAGGAGUUUCCUCCUGCUAUUUCAACAGCUCGCAGUCAAG
binding signal: 0.343 log2 fold change

----------
Experimental System: GST-SBP-SLBP (stem-loop binding protein) (Homo sapiens, UniProt Q14493 1-270)
Protocol Summary: targeted RNA Bind-n-Seq; RBNS binding buffer: 25 mM Tris pH 7.5, 150 mM KCl, 3 mM MgCl2, 0.1% Tween, 0.5 mg/mL BSA, 1 mM DTT; 27 nM protein, 750 pM RNA pool; temperature not stated; high values mean tight binding
Condition Details: protein: recombinant; tags: N-terminal GST and SBP (pGEX6P1-SBP); structured_RNA
In all, about 11,000 sequences were measured (“log2 fold change”: median about 0.00022, highest 2% from about 0.34 on). This is one part of the list.
Measured binding signal accompanies every entry in the list below.
Measured Endpoint: binding signal

Residues: GGUCACGUCUCAAUCAACUCCUUCGAGGGGGGGAAAACCCCUUUACCCUCACAAUCAACAGCUCGCAGUCAAG
Experimental Result: 0.304 log2 fold change

Residues: GGUCACGUCUCAAUCAACUCCCUCGAGGGGGGGAAAACCCCUUUACCCUCAUUAUCAACAGCUCGCAGUCAAG
Experimental Result: 0.395 log2 fold change

Residues: GGUCACGUCUCAAUCAACUCUAUCCCCAGGGAAAUCCCUGGUAUAUUCAACAGCUCGCAGUCAAG
Experimental Result: 0.333 log2 fold change

Residues: GGUCACGUCUCAAUCAACUCAAUCCCCAGGGAAAGCCCUGGUAUUCUCAACAGCUCGCAGUCAAG
Experimental Result: 0.378 log2 fold change

Residues: GGUCACGUCUCAAUCAACUCCAAAGAGGGGGGGAAAACCCCUUUACCCUCGUCCUCAACAGCUCGCAGUCAAG
Experimental Result: 0.369 log2 fold change

Residues: GGUCACGUCUCAAUCAACUCUAUCCCCAGGGAAAGCCCUGGUAUAUUCAACAGCUCGCAGUCAAG
Experimental Result: 0.366 log2 fold change

Residues: GGUCACGUCUCAAUCAACUCAUACGAGGGGGGGAAAACCCCUUUACCCUCAAUAUCAACAGCUCGCAGUCAAG
Experimental Result: 0.313 log2 fold change

Residues: GGUCACGUCUCAAUCAACUCAAAAGAGGGGGGGAAAACCCCUUUGCCCUCACUUUCAACAGCUCGCAGUCAAG
Experimental Result: 0.573 log2 fold change

----------
Experimental System: GST-SBP-SLBP (stem-loop binding protein) (Homo sapiens, UniProt Q14493 1-270)
Protocol Summary: targeted RNA Bind-n-Seq; RBNS binding buffer: 25 mM Tris pH 7.5, 150 mM KCl, 3 mM MgCl2, 0.1% Tween, 0.5 mg/mL BSA, 1 mM DTT; 27 nM protein, 750 pM RNA pool; temperature not stated; high values mean tight binding
Condition Details: protein: recombinant; tags: N-terminal GST and SBP (pGEX6P1-SBP); structured_RNA
Whole data set: some 11,000 sequences, median “log2 fold change” near 0.00022, cut for the highest 2% near 0.34. Some of the results follow.
Measured Endpoint: binding signal (log2 fold change)

Residues: GGUCACGUCUCAAUCAACUCAUUAGAGGGGGGGAAAACCCCUUUACCCUCAUCAUCAACAGCUCGCAGUCAAG
Measured Endpoint: binding signal
Experimental Result: 0.333

Residues: GGUCACGUCUCAAUCAACUCUCUAGAGGGGGGGAAAACCCCUUUGCCCUCACACUCAACAGCUCGCAGUCAAG
Measured Endpoint: binding signal
Experimental Result: 0.353

Residues: GGUCACGUCUCAAUCAACUCUAAAGAGGGGGGGAAAACCCCUUUACCCUCCUACUCAACAGCUCGCAGUCAAG
Measured Endpoint: binding signal
Experimental Result: 0.315

Residues: GGUCACGUCUCAAUCAACUCCUCAGAGGGGGGGAAAACCCCUUUACCCUCCUUAUCAACAGCUCGCAGUCAAG
Measured Endpoint: binding signal
Experimental Result: 0.431

Residues: GGUCACGUCUCAAUCAACUCUAAAGAGGGGGGGAAAACCCCUUUACCCUCAUCAUCAACAGCUCGCAGUCAAG
Measured Endpoint: binding signal
Experimental Result: 0.394

Residues: GGUCACGUCUCAAUCAACUCUAUCUCCAGGGAAAUCCCUGGUAAACUCAACAGCUCGCAGUCAAG
Measured Endpoint: binding signal
Experimental Result: 0.306

Residues: GGUCACGUCUCAAUCAACUCAGUCUCCAGGGAAAUCCCUGGUAUUUUCAACAGCUCGCAGUCAAG
Measured Endpoint: binding signal
Experimental Result: 0.347

Residues: GGUCACGUCUCAAUCAACUCAUCUCCCAGGGAAAUCCCUGGCUUAUUCAACAGCUCGCAGUCAAG
Measured Endpoint: binding signal
Experimental Result: 0.417
